Attribute: IC50
- target entity: Recombinant STAT3 protein (STAT3 (G127-I722)) (Homo sapiens)
- Construct: Recombinant STAT3 protein (STAT3 (G127-I722))
- Sequence (P40763 127-722): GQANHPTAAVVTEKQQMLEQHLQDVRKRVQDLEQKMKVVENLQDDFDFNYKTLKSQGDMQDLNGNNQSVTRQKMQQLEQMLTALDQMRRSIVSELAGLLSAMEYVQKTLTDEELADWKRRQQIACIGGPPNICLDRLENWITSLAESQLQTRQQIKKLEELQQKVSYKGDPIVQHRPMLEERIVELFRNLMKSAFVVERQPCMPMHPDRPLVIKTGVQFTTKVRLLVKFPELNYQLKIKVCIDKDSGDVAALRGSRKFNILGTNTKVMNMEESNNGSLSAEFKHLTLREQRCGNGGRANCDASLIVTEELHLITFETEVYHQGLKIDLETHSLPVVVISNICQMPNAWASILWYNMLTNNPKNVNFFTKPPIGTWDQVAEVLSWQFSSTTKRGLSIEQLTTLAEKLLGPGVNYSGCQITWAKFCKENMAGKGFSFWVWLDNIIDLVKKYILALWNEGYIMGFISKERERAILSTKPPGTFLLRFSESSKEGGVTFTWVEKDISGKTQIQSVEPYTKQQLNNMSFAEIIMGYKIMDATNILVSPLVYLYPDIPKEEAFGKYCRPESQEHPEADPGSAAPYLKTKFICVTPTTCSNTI
- assay protocol: STAT3 Fluorescence Polarization (FP) Assay
- Format: binding
- cond: STAT3 (G127-I722) 25 nM, probe 5-FAM-GpYLPQTV-NH2 2 nM, 45-minute incubation; read-out: STAT3 (FP assay IC50 class)
- Method: STAT3 Fluorescence Polarization (FP) Assay An FP assay was developed to determine IC50 values for test substances. […] Reaction components were mixed, and FP was measured after 45-minute incubation at room temperature using a Tecan Spark multimode plate reader. FP signal (mP) was plotted against the log concentration of the test substances and IC50 values were calculated by nonlinear regression analysis using GraphPad Prism software. […]

These solved cases illustrate the format of a correct answer.
| compound | IC50 |
| --- | --- |
| O=C(N[C@H]1CCCC[C@H]2CC[C@@H](C(=O)N3CC(c4cnccc4F)C3)N2C1=O)c1cc2cc(CP(=O)(O)O)ccc2s1 | < 100 nM |
| Cn1cnnc1C1CN(C(=O)[C@@H]2CC[C@@H]3CCC[C@H](NC(=O)c4cc5cc(C(F)(F)P(=O)(O)O)ccc5s4)C(=O)N32)CCO1 (stereo partly drawn) | 100 to 1000 nM |

Shift focus to the following entry.
Short answer on Recombinant STAT3 protein (STAT3 (G127-I722)) (Homo sapiens) for `CCOC1(c2nncn2C)CN(C(=O)[C@@H]2CC[C@@H]3CCC[C@H](NC(=O)c4cc5cc(C(F)(F)P(=O)(O)O)ccc5s4)C(=O)N32)C1` , IC50: 100 to 1000 nM

###

- target entity: Recombinant STAT6 protein (STAT6 (W123-T658)) (Homo sapiens)
- Construct: Recombinant STAT6 protein (STAT6 (W123-T658))
- Sequence (P42226 123-658): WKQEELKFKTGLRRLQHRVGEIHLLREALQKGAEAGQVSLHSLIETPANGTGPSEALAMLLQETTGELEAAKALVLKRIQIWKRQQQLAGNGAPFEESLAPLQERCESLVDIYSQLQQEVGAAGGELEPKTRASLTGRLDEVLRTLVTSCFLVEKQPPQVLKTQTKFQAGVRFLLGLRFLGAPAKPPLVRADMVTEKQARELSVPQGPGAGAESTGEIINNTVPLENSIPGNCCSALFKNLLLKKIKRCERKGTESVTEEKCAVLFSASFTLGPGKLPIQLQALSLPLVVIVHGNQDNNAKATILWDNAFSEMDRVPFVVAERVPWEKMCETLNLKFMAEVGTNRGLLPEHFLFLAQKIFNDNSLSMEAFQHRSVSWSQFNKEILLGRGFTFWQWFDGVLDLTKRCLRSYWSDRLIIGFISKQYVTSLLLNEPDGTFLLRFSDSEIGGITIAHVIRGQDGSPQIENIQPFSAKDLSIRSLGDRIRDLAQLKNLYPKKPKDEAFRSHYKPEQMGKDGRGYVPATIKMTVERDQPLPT
- assay protocol: STAT6 Fluorescence Polarization (FP) Assay
- Assay type: binding
- cond: STAT6 (W123-T658) 250 nM, probe 5-FAM-Ap[…]-NH2 2 nM, 45-minute incubation; read-out: STAT6 (FP assay IC50 class)
- Description: STAT6 Fluorescence Polarization (FP) Assay An FP assay was developed to determine IC50 values for test substances. […] Reaction components were mixed, and FP was measured after 45-minute incubation at room temperature using a Tecan Spark multimode plate reader. FP signal (mP) was plotted against the log concentration of the test substances and IC50 values were calculated by nonlinear regression analysis using GraphPad Prism software. […]
endpoint: IC50

These solved cases illustrate the format of a correct answer.
| compound | target entity | IC50 |
| --- | --- | --- |
| COC1(c2nccn2C)CN(C(=O)[C@@H]2CC[C@@H]3CCC4(CC4)C[C@H](NC(=O)c4ccc5ccc(C(F)(F)P(=O)(O)O)cc5c4)C(=O)N32)C1 [Compound 215] | Recombinant STAT6 protein (STAT6 (W123-T658)) (Homo sapiens) | 3 to 30 µM |
| Cn1ncc(C2CN(C(=O)[C@@H]3CC[C@@H]4CCC[C@H](NC(=O)c5cc6cc(C(F)P(=O)(O)O)ccc6s5)C(=O)N43)C2)c1O (some centres unmarked) [Compound 607] | Recombinant STAT6 protein (STAT6 (W123-T658)) (Homo sapiens) | 0.3 to 3 µM |
| Cn1cc(C2CN(C(=O)[C@@H]3CC[C@@H]4CCC[C@H](NC(=O)c5cc6cc(C(F)P(=O)(O)O)ccc6s5)C(=O)N43)C2)c(F)n1 (some centres unmarked) [Compound 715] | Recombinant STAT6 protein (STAT6 (W123-T658)) (Homo sapiens) | 3 to 30 µM |
| Cc1ccncc1C1CN(C(=O)[C@@H]2CC[C@@H]3C[C@@H](C)CC[C@H](NC(=O)c4cc5cc(CP(=O)(O)O)ccc5s4)C(=O)N32)C1 [Compound 655] | Recombinant STAT6 protein (STAT6 (W123-T658)) (Homo sapiens) | 3 to 30 µM |
| COCC1(c2ccccc2)CN(C(=O)[C@@H]2CC[C@@H]3CCC[C@H](NC(=O)c4cc5cc(C(F)(F)P(=O)(O)O)ccc5s4)C(=O)N32)C1 [Compound 777] | Recombinant STAT6 protein (STAT6 (W123-T658)) (Homo sapiens) | 0.3 to 3 µM |
| O=C(N[C@H]1CCCC[C@H]2CC[C@@H](C(=O)N3CC(c4nc5ccccc5o4)C3)N2C1=O)c1cc2cc(C(F)(F)P(=O)(O)O)ccc2s1 [Compound 497] | Recombinant STAT6 protein (STAT6 (W123-T658)) (Homo sapiens) | 0.3 to 3 µM |
| O=C(N[C@H]1CCCC[C@H]2CC[C@@H](C(=O)N3CCC(c4cc[nH]n4)CC3)N2C1=O)c1cc2cc(C(F)P(=O)(O)O)ccc2s1 (some centres unmarked) [Compound 589] | Recombinant STAT6 protein (STAT6 (W123-T658)) (Homo sapiens) | 3 to 30 µM |
| O=C(N[C@H]1CCCC[C@H]2CC[C@@H](C(=O)N3CC(NCC(F)F)(c4ccccn4)C3)N2C1=O)c1cc2cc(C(F)P(=O)(O)O)ccc2s1 (some centres unmarked) [Compound 761] | Recombinant STAT6 protein (STAT6 (W123-T658)) (Homo sapiens) | 3 to 30 µM |
| O=C(N[C@H]1CCC[C@H]2CC[C@@H](C(=O)N3C[C@@H](c4cccnc4)CC34CC4)N2C1=O)c1cc2cc([C@@H](F)P(=O)(O)O)ccc2s1 (single isomer, unassigned) [Compound 917] | Recombinant STAT6 protein (STAT6 (W123-T658)) (Homo sapiens) | ≤ 0.3 µM |
| O=C(N[C@H]1CCC[C@H]2CC[C@@H](C(=O)N3CC(c4cnccc4O)C3)N2C1=O)c1cc2cc(CP(=O)(O)O)ccc2s1 [Compound 539] | Recombinant STAT6 protein (STAT6 (W123-T658)) (Homo sapiens) | 3 to 30 µM |

Lab book: IC50 of O=C(N[C@H]1CCCC[C@H]2CC[C@@H](C(=O)N3C[C@H](c4cc[nH]c(=O)c4)CC34CC4)N2C1=O)c1ccc2ccc(CP(=O)(O)O)cc2c1 [Compound 882] noted as 0.3 to 3 µM

Source: patent US20250215029A1
